The reported measurements were obtained from patent US9518094B2.

experiment: Solubility assessment of Compound I Form A in solvents and solvent mixtures (visual observation); format: physicochemical; settings: (1:0.1) toluene:TFE, organic solvent or mixture, thermodynamic from solid, (1:0.1) Toluene:TFE; ambient temperature; reported values <= actual solubility, approximate; read-out: Solubility

compound: C/C=C1\NC(=O)[C@H]2CSSCC/C=C/[C@H](CC(=O)N[C@H](C(C)C)C(=O)N2)OC(=O)[C@H](C(C)C)NC1=O [Form A, romidepsin]
unit_annotation: mg/mL
solubility: 21.4

---

experiment: Solubility assessment of Compound I Form A in solvents and solvent mixtures (visual observation); format: physicochemical; conditions: 2,2,2-trifluoroethanol (TFE), organic solvent or mixture, thermodynamic from solid, 2,2,2-trifluoroethanol (TFE); ambient temperature; reported values <= actual solubility, approximate; read-out: Solubility

compound: C/C=C1\NC(=O)[C@H]2CSSCC/C=C/[C@H](CC(=O)N[C@H](C(C)C)C(=O)N2)OC(=O)[C@H](C(C)C)NC1=O [Form A, romidepsin]
solubility: > 100 mg/mL
